Values were extracted from patent US8426429B2.

system_name: β-secretase (BACE) (Homo sapiens, UniProt P56817)
Construct: purchased Panvera
Sequence (P56817 46-501): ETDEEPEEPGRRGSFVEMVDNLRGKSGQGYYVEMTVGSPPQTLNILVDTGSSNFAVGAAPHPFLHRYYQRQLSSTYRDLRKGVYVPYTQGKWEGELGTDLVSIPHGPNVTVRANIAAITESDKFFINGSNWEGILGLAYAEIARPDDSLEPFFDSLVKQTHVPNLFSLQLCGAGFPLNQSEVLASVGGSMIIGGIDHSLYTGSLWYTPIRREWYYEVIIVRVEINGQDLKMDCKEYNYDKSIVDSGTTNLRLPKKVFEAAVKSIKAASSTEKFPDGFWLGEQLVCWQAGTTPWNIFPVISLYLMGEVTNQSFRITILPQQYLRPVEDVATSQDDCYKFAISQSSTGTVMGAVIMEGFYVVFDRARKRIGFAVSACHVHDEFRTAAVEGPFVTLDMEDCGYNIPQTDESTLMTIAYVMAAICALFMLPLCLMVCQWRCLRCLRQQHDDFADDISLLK
experiment_description: BACE FS1 % Inhibition Assay
Type: biochemical
assay_conditions: 1 μM test compound
Protocol: The following reagents were used in this assay: sodium acetate, PEG8000 (Sigma), DMSO, HEPES, FS1 substrate [[…]] […] The FS1-substrate stock solution was prepared in DMSO as a 10 mg/mL solution. The FS1-substrate working solution was prepared by diluting the 10 mg/mL stock solution with substrate assay buffer to a final concentration of 300 μg/mL. […] For test compounds, % inhibition was determined at each concentration as follows: [formula]
assay_endpoint: % Inhibition (FS)

Q) What value of measured % Inhibition (FS) is listed for CCCCCCCCC(CCC(=O)NC1CCCCCC1)N1Cc2cc(Oc3ccccc3)ccc2N=C1N (stereo not drawn) ?
A) <30%

Q) Also NC1=Nc2ccc(-c3ccccc3Cl)cc2CN1CCNC(=O)C1CCC1 , if possible.
A) 65%

Q) Also CN(C(=O)c1cccc(CN2Cc3cc(Sc4ccc5ccccc5c4)ccc3N=C2N)c1)C1CCCCC1 , if possible.
A) <30%

Q) Also CC(C)c1ccccc1Oc1ccc2c(c1)CN(CCC(=O)NC1C3CC4CC(C3)CC1C4)C(N)=N2 (stereo not drawn) , if possible.
A) <30%

Q) Also CN(C(=O)c1ncoc1CN1Cc2cc(Oc3ccccc3)ccc2N=C1N)C1CCCCC1 , if possible.
A) <30%
